RUN_DESCRIPTION: xn = mol fraction of the nth substance listed, in the solute-free solvent
TEST_SETTINGS: 278.15 K; x2 = 0.3
Could you label it Criterion met if measured solubility (g/100 g solution) is 0.7 or higher, and Criterion not met otherwise?

Known results for compounds:
Cc1c(Br)c(=O)n(C2CCCC2)c2nc(Cl)ncc12 + CCOC(C)=O + CCO: Criterion not met
Cc1ncc(CO)c(CO)c1O.Cl + O + CCCO: Criterion met
Cc1c(Br)c(=O)n(C2CCCC2)c2nc(Cl)ncc12 + CC1=CC(=O)CC(C)(C)C1 + CC(C)O: Criterion not met
Cc1c(Br)c(=O)n(C2CCCC2)c2nc(Cl)ncc12 + C1CCOC1 + CCO: Criterion met

// next entry
[in] API: above_or_equal(metric=solubility (g/100 g solution), cutoff=0.7) for item Cc1ncc(CO)c(CO)c1O.Cl + O + CC(C)O
[out] Criterion not met

====

RUN_DESCRIPTION: xn = mol fraction of the nth substance listed, in the solute-free solvent
TEST_SETTINGS: 303.15 K; x2 = 0.1
REPORTED_PROPERTY: solubility (g/100 g solution)
Write no unit; give the number alone.

# example entries with known answers
CCOc1ccccc1C(N)=O + CCO + CC#N: 6.28
Cc1c(Br)c(=O)n(C2CCCC2)c2nc(Cl)ncc12 + CCOC(C)=O + CCO: 0.429
Cc1c(Br)c(=O)n(C2CCCC2)c2nc(Cl)ncc12 + C1CCOC1 + CCO: 1.53
Cl.NC(Cc1ccccc1)C(=O)OCc1ccccc1 (stereo not given) + CO + CC(C)=O: 0.306
CCOc1ccccc1C(N)=O + CO + CC#N: 6.47

[in] Form field: reported solubility (g/100 g solution) of Cl.N=C(N)NC(=N)N1CCOCC1 + O + CC(C)O
[out] 0.607

[in] Form field: reported solubility (g/100 g solution) of O=C(NC(C(=O)O)c1ccccc1)OCc1ccccc1 (stereo not given) + CCO + O
[out] 0.153

[in] Form field: reported solubility (g/100 g solution) of COC(=O)C(N)CS.Cl (stereo not given) + CCO + ClCCl
[out] 1.42

[in] Form field: reported solubility (g/100 g solution) of Cc1c(Br)c(=O)n(C2CCCC2)c2nc(Cl)ncc12 + CC1=CC(=O)CC(C)(C)C1 + CC(C)O
[out] 0.522

[in] Form field: reported solubility (g/100 g solution) of CCOc1ccccc1C(N)=O + CC#N + CC(C)O
[out] 5.5

====

solubility (g/100 g solution) for assorted compounds
RUN_DESCRIPTION: xn = mol fraction of the nth substance listed, in the solute-free solvent
TEST_SETTINGS: 303.15 K; x2 = 0.4
Write no unit; give the number alone.

# example entries with known answers
O=C(NC(C(=O)O)c1ccccc1)OCc1ccccc1 (stereo not drawn) + CCO + O: 7.93
CCOc1ccccc1C(N)=O + CCO + CC#N: 9.86
Cc1c(Br)c(=O)n(C2CCCC2)c2nc(Cl)ncc12 + CCOC(C)=O + CCO: 0.77
CCOc1ccccc1C(N)=O + CO + CC#N: 11.5

[in] Form field: reported solubility (g/100 g solution) of N#CCNC(=O)c1cnccc1C(F)(F)F + CCOC(C)=O + CCO
[out] 10.1

[in] Form field: reported solubility (g/100 g solution) of CCOC(=O)OC1=C(c2cc(C)ccc2C)C(=O)NC12CCC(OC)CC2 (stereo not drawn) + CO + O
[out] 1.07

[in] Form field: reported solubility (g/100 g solution) of Cc1c(Br)c(=O)n(C2CCCC2)c2nc(Cl)ncc12 + C1CCOC1 + CCO
[out] 4.51

[in] Form field: reported solubility (g/100 g solution) of Cc1c(Br)c(=O)n(C2CCCC2)c2nc(Cl)ncc12 + CC1=CC(=O)CC(C)(C)C1 + CC(C)O
[out] 1.35

[in] Form field: reported solubility (g/100 g solution) of Cc1ncc(CO)c(CO)c1O.Cl + O + CC(C)O
[out] 2.34

[in] Form field: reported solubility (g/100 g solution) of CCOC(=O)OC1=C(c2cc(C)ccc2C)C(=O)NC12CCC(OC)CC2 (stereo not drawn) + CCO + O
[out] 5.06

[in] Form field: reported solubility (g/100 g solution) of COC(=O)C(N)CS.Cl (stereo not drawn) + CCO + ClCCl
[out] 5.72

[in] Form field: reported solubility (g/100 g solution) of CCOc1ccccc1C(N)=O + CC#N + CC(C)O
[out] 8.13

====

RUN_DESCRIPTION: xn = mol fraction of the nth substance listed, in the solute-free solvent
TEST_SETTINGS: 283.15 K; x2 = 0.5
solubility (g/100 g solution) for assorted compounds
Write no unit; give the number alone.

# example entries with known answers
Cc1ncc(CO)c(CO)c1O.Cl + O + CCCO: 3.07
Cc1c(Br)c(=O)n(C2CCCC2)c2nc(Cl)ncc12 + CC1=CC(=O)CC(C)(C)C1 + CC(C)O: 0.458
Cc1ncc(CO)c(CO)c1O.Cl + O + CC(C)O: 1.72
O=C(NC(C(=O)O)c1ccccc1)OCc1ccccc1 (stereo not given) + CCO + O: 4.36
Cc1c(Br)c(=O)n(C2CCCC2)c2nc(Cl)ncc12 + CCOC(C)=O + CCO: 0.467

[in] Form field: reported solubility (g/100 g solution) of Cc1c(Br)c(=O)n(C2CCCC2)c2nc(Cl)ncc12 + C1CCOC1 + CCO
[out] 2.71

[in] Form field: reported solubility (g/100 g solution) of COC(=O)C(N)CS.Cl (stereo not given) + CCO + ClCCl
[out] 3.86

[in] Form field: reported solubility (g/100 g solution) of Cl.NC(Cc1ccccc1)C(=O)OCc1ccccc1 (stereo not given) + CO + CC(C)=O
[out] 3.85

[in] Form field: reported solubility (g/100 g solution) of Cl.N=C(N)NC(=N)N1CCOCC1 + O + CC(C)O
[out] 8.16

[in] Form field: reported solubility (g/100 g solution) of Cc1ncc(CO)c(CO)c1O.Cl + O + CC#N
[out] 4.09

====

solubility (g/100 g solution) for assorted molecules
RUN_DESCRIPTION: xn = mol fraction of the nth substance listed, in the solute-free solvent
TEST_SETTINGS: 303.15 K; x2 = 0.7

Cc1c(Br)c(=O)n(C2CCCC2)c2nc(Cl)ncc12 + C1CCOC1 + CCO: 6.64

[in] Form field: reported solubility (g/100 g solution) of Cc1c(Br)c(=O)n(C2CCCC2)c2nc(Cl)ncc12 + CCOC(C)=O + CCO
[out] 1

[in] Form field: reported solubility (g/100 g solution) of CCOc1ccccc1C(N)=O + CC#N + CC(C)O
[out] 7.99

[in] Form field: reported solubility (g/100 g solution) of O=C(NC(C(=O)O)c1ccccc1)OCc1ccccc1 (stereo not given) + CCO + O
[out] 21.9

[in] Form field: reported solubility (g/100 g solution) of Cl.NC(Cc1ccccc1)C(=O)OCc1ccccc1 (stereo not given) + CO + CC(C)=O
[out] 10.7

====

solubility (g/100 g solution) for assorted molecules
RUN_DESCRIPTION: xn = mol fraction of the nth substance listed, in the solute-free solvent
TEST_SETTINGS: 308.15 K; x2 = 0.6
Write no unit; give the number alone.

Cc1c(Br)c(=O)n(C2CCCC2)c2nc(Cl)ncc12 + CCOC(C)=O + CCO: 1.07
Cc1c(Br)c(=O)n(C2CCCC2)c2nc(Cl)ncc12 + CC1=CC(=O)CC(C)(C)C1 + CC(C)O: 2.23
CCOc1ccccc1C(N)=O + CC#N + CC(C)O: 10.5
N#CCNC(=O)c1cnccc1C(F)(F)F + CCOC(C)=O + CCO: 10.8
Cc1ncc(CO)c(CO)c1O.Cl + O + CCCO: 9.47

[in] Form field: reported solubility (g/100 g solution) of CCOc1ccccc1C(N)=O + CO + CC#N
[out] 16.5

[in] Form field: reported solubility (g/100 g solution) of Cc1c(Br)c(=O)n(C2CCCC2)c2nc(Cl)ncc12 + C1CCOC1 + CCO
[out] 6.96

[in] Form field: reported solubility (g/100 g solution) of CCOC(=O)OC1=C(c2cc(C)ccc2C)C(=O)NC12CCC(OC)CC2 (centres undefined) + CC(C)O + O
[out] 12.3

[in] Form field: reported solubility (g/100 g solution) of Cc1ncc(CO)c(CO)c1O.Cl + O + CC#N
[out] 11.2

[in] Form field: reported solubility (g/100 g solution) of CCOC(=O)OC1=C(c2cc(C)ccc2C)C(=O)NC12CCC(OC)CC2 (centres undefined) + CC(C)=O + O
[out] 21.6

[in] Form field: reported solubility (g/100 g solution) of CCOc1ccccc1C(N)=O + CCO + CC#N
[out] 13

[in] Form field: reported solubility (g/100 g solution) of CCOC(=O)OC1=C(c2cc(C)ccc2C)C(=O)NC12CCC(OC)CC2 (centres undefined) + CCO + O
[out] 11.5

[in] Form field: reported solubility (g/100 g solution) of CCOC(=O)OC1=C(c2cc(C)ccc2C)C(=O)NC12CCC(OC)CC2 (centres undefined) + CO + O
[out] 5.89

[in] Form field: reported solubility (g/100 g solution) of Cc1ncc(CO)c(CO)c1O.Cl + O + CC(C)O
[out] 8.34

Cited source for all entries: the CheMixHub drug solubility set
